- System: uterus wet weight, immature Sprague-Dawley rats
- assay: Rat Uterotrophic/Antiuterotrophic Bioassay
- Type: in vivo
- test_context: 10 uG compound daily ip; immature female rats; day 4
reported_metric: uterine wet weight, 10 μG (mg)
Entry rule: numbers only, all in mg.

Please fill in: uterine wet weight, 10 μG reported for Cc1c(-c2ccc(O)cc2)n(Cc2ccc(C#CCN(C)C)cc2)c2ccc(O)cc12 = 56.0

Form: compound = Cc1c(-c2ccc(O)cc2)n(Cc2ccc(C#CCN3CCCCC3)cc2)c2ccc(O)cc12 ; uterine wet weight, 10 μG = 55.6

Record CC/C(=C(\c1ccccc1)c1ccc(OCCN(C)C)cc1)c1ccccc1 , field uterine wet weight, 10 μG: 69.6

For O=C(c1ccc(OCCN2CCCCC2)cc1)c1c(-c2ccc(O)cc2)sc2cc(O)ccc12 the compound record lists uterine wet weight, 10 μG as 47.5
